Source of measurements: patent US20110245249A1

- Procedure summary: logP by HPLC on reversed-phase columns (EEC Directive 79/831 Annex V.A8)
- Type: physicochemical
- Condition description: pH 2.7, logP (pH 2.7)
Parameter threshold = 2. Response is criterion met when chromatographic logP meets or exceeds it, else criterion not met.

- Compound: "CCN(CC)CC1COC(c2cccc(Nc3ncc(Cl)c(NC4CC4)n3)c2)O1 (stereo not drawn)"
  Group: "criterion not met"
- Compound: "CN(c1nc(Nc2cccc(C=O)c2)ncc1Cl)C1CC1"
  Group: "criterion met"
- Compound: "O=Cc1cccc(Nc2ncc(Cl)c(NCC3CC3)n2)c1"
  Group: "criterion not met"
- Compound: "CC1(c2cccc(Nc3ncc(Cl)c(NC4CC4)n3)c2)OCCO1"
  Group: "criterion not met"
- Compound: "C#CCNc1nc(Nc2cccc(C=O)c2)ncc1Cl"
  Group: "criterion not met"
- Compound: "Clc1cnc(Nc2cccc(C3OCCO3)c2)nc1NC1CC1"
  Group: "criterion not met"
